System: A375
Assay: 3-day CellTiter-Glo cell viability assay
Format: cell-based
Settings: 0.25% FBS media, read-out: GI50, drug alone
Readings of GI50 for the listed molecules
Quick reminder: number only, in µM, skip the unit.

N[C@@H]1CCCN(c2c(/C=C3\SC(=O)NC3=O)cccc2-c2ccccc2)C1; 12.5
O=C1Cc2c([nH]c3ccc(Br)cc23)-c2ncccc2N1; 2.5

Lab note: next molecule to report on.
Exam item: For "CCc1cncnc1N1CCN(Cc2nc3ccc(C(F)(F)F)cc3[nH]2)CC1" , what is its reported GI50?
Marked response: 16

* * *

Each item that follows carries a reported log10 of GI50.
System: A375
Assay: 3-day CellTiter-Glo cell viability assay
Assay type: cell-based
Conditions: Homo sapiens, A-375, 72 h, 5% FBS media, read-out: GI50, drug alone
Description: To assess the growth/survival response of cell lines to single or combinatorial drug treatments in FIGS. 2-3 and FIGS. 20, 22, 28, 29, we used CellTiter-Glo cell viability assay (Promega; cat #G7571). Cell culture and luminescence readouts were performed in 96- and 384-well plates after 3-day treatments. Drug treatment conditions are described in the text. […] To quantitate cell death in FIG. 3 and FIGS. 28-29, FACS analysis of nuclear degradation was performed as previously described^13. […]
In our notation, the value equals log10 of GI50 in µM.

CO[C@H]1C[C@@H]2CC[C@@H](C)[C@@](O)(O2)C(=O)C(=O)N2CCCC[C@H]2C(=O)O[C@H]([C@H](C)C[C@@H]2CC[C@@H](OCCO)[C@H](OC)C2)CC(=O)[C@H](C)/C=C(\C)[C@@H](O)[C@@H](OC)C(=O)[C@H](C)C[C@H](C)/C=C/C=C/C=C/1C [everolimus]; 0.70

Exam item: Given CC(=O)Nc1cccc(-n2c(=O)n(C3CC3)c(=O)c3c(Nc4ccc(I)cc4F)n(C)c(=O)c(C)c32)c1 [trametinib] , state its recorded log10 of GI50.
Marked response: -2.30

Exam item: log10 of GI50 for CCCS(=O)(=O)Nc1ccc(F)c(C(=O)c2c[nH]c3ncc(-c4ccc(Cl)cc4)cc23)c1F [VEM, vemurafenib] ?
Marked response: -0.82

Exam item: Request the reported log10 of GI50 associated with Cn1cc(-c2ccc(F)c(C(F)(F)F)c2)nc1C1CCN(c2ncnc3[nH]ncc23)CC1 [LY2584702]
Marked response: 1.70

Exam item: For the compound NC1(c2ccc(-c3nc4ccn5c(=O)[nH]nc5c4cc3-c3ccccc3)cc2)CCC1 [MK2206] , what log10 of GI50 is on record?
Marked response: 1.00

The reported measurements were obtained from patent US20210333285A1.
